# Subject of test: acetylcholinesterase (AChE, Type VI-S, from electric eel) (Electrophorus electricus)
# Sequence (O42275 24-633): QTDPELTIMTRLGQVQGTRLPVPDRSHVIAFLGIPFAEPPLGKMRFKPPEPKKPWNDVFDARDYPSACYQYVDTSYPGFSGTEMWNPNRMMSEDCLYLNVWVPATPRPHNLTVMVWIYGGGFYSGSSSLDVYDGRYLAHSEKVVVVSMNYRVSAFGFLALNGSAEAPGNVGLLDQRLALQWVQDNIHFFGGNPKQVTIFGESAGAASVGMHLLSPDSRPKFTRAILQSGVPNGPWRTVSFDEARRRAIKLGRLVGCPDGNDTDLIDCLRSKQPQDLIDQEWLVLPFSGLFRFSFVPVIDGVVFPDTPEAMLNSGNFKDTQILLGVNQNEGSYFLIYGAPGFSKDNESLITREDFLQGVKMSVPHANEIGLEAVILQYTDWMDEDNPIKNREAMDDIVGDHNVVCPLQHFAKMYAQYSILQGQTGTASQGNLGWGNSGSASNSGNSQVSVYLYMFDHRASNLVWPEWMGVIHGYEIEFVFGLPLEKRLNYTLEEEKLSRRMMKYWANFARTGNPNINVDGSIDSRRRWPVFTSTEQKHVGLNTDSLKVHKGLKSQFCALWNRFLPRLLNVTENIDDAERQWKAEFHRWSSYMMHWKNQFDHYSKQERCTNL
# Test: modified Ellman colorimetric AChE inhibition assay
# Format: biochemical
Parameter measured: IC50
# include the unit after the value

Q) Which IC50 is listed for C=C1C(OC(C)=O)CCC2(C)CC3(C45CC6(C)CCC(OC(C)=O)C(=C)C6CC4=C(C)C(=O)O5)OC(=O)C(C)=C3CC12 (stereo not shown) [compound 5, biatractylenolide II] ?
A) 33.9 µM

Each recorded value in this set is attributed to paper PMC8659057.
